Data origin, for the record: ChEMBL document CHEMBL2028040

Each entry below carries its reported pIC50.
- System: Leishmania infantum
- Test Summary: MMV: Inhibition of Leishmania infantum (MHOM/MA/BE/67) in vitro.
- Format: functional, organism-based
pIC50: −log10 of the molar value.
Value Kind: pIC50

Compound: CCCOCc1cc(CN2CCN(c3cccc(Cl)c3)CC2)c(O)c2ncccc12
Result Modifier: =
Meas Value: 5.80
--
Compound: CCOC(=O)c1cnc2ccc(Cl)cc2c1NCCCN(C)C
Result Modifier: =
Meas Value: 4.79
--
Compound: FC(F)(F)c1cccc(Nc2nc3ccccc3nc2Nc2cccc(C(F)(F)F)c2)c1
Result Modifier: =
Meas Value: 5.39
--
Compound: C=CCc1c(C)nc2ccccc2c1O
Result Modifier: <
Meas Value: 4.49
--
Compound: Cc1cc(NC(=O)c2cccc(C(F)(F)F)c2)n(-c2nc(-c3ccc4c(c3)OCO4)cs2)n1
Result Modifier: =
Meas Value: 4.79
--
Compound: Cc1cc(N2CCCC2)nc(Nc2ccc(NC(=O)CCc3ccccc3)cc2)n1
Result Modifier: =
Meas Value: 5.92
--
Compound: Cc1ccc(N2C3c4ccccc4N(S(=O)(=O)c4ccc(C)cc4)C2c2ccccc2N3S(=O)(=O)c2ccc(C)cc2)cc1
Result Modifier: =
Meas Value: 4.79
--
Compound: COc1ccc(Nc2cc(C)nc(NCc3ccccc3)n2)cc1
Result Modifier: =
Meas Value: 5.36
--
Compound: CCCCC(O)(c1ccc(Cl)cc1)C(CN1CCOCC1)c1ccc(Cl)cc1 (stereo not given)
Result Modifier: =
Meas Value: 4.99
--
Compound: O=c1nc(C=Cc2ccc(Cl)cc2)oc2ccccc12
Result Modifier: <
Meas Value: 4.49
--
Compound: CCOC(=O)C1=C(C)N=c2sc(=Cc3cc(Cl)ccc3O)c(=O)n2C1c1ccc(OC)cc1 (stereo not given)
Result Modifier: =
Meas Value: 4.79
--
Compound: CC(C)(C)c1ccc2c(c1)CN(Cc1ccc(Cl)cc1)CO2
Result Modifier: <
Meas Value: 4.49
--
Compound: COc1ccc(C(=O)Nc2nonc2-c2ccc(OC)c(OC)c2)cc1Cl
Result Modifier: <
Meas Value: 4.49
--
Compound: COc1ccc(CN2CCN(Cc3ccccc3)CC2)c(O)c1
Result Modifier: <
Meas Value: 4.49
--
Compound: Cc1ccc2nc(C)cc(Nc3cccc(C(F)(F)F)c3)c2c1
Result Modifier: =
Meas Value: 5.51
--
Compound: CCOC(=O)C1CCN(C(=O)CN2C(=O)c3ccccc3C2c2c[nH]c3ccccc23)CC1 (stereo not given)
Result Modifier: <
Meas Value: 4.49
--
Compound: Cc1ccc(Cn2c(N3CCC(C(=O)NCc4cccs4)CC3)nc3ccccc32)cc1
Result Modifier: =
Meas Value: 4.60
--
Compound: CCCCc1c(C)nc2c(OC)cccc2c1O
Result Modifier: <
Meas Value: 4.49
--
Compound: O=C(Nc1ccc(Cl)cc1C(=O)Nc1ccncc1)c1ccc(Cl)cc1Cl
Result Modifier: <
Meas Value: 4.49
--
Compound: COc1nc(Nc2ccc(C(C)C)cc2)nc(OC)n1
Result Modifier: <
Meas Value: 4.49
--
Compound: O=C(NCc1ccco1)C1CCN(S(=O)(=O)c2ccc(Br)cc2)CC1
Result Modifier: <
Meas Value: 4.49
--
Compound: CNCCCNc1ccnc2cc(Cl)ccc12
Result Modifier: =
Meas Value: 4.79
--
Compound: O=C(NC1CCN(Cc2ccccc2)CC1)c1cc(-c2cccnc2)nc2ccc(Cl)cc12
Result Modifier: <
Meas Value: 4.49
--
Compound: O=C(NCC(c1ccsc1)N1CCCCCC1)c1ccc(C(F)(F)F)cc1 (stereo not given)
Result Modifier: =
Meas Value: 4.79
--
Compound: COc1ccc(CCNC(=O)c2cc(S(=O)(=O)N3CC(C)CC(C)C3)ccc2Sc2ccc(F)cc2)cc1OC (stereo not given)
Result Modifier: <
Meas Value: 4.49
--
Compound: COc1ccccc1CNC(=O)C1c2ccccc2C(=O)N(CC(C)C)C1c1cccs1 (stereo not given)
Result Modifier: <
Meas Value: 4.49
--
Compound: CCOC(=O)c1cnc2c(C)cc(C)cc2c1Nc1ccc(OC)c(OC)c1
Result Modifier: <
Meas Value: 4.49
--
Compound: CC(=O)NCCc1nc2ccccc2n1Cc1ccc(C(C)C)cc1
Result Modifier: <
Meas Value: 4.49
--
Compound: COc1ccc(C=C2SC(Nc3ccc(F)cc3)=NC2=O)c(OC)c1
Result Modifier: <
Meas Value: 4.49
--
Compound: CN1c2ccccc2N(C)C1c1ccc2c(c1)OCO2
Result Modifier: <
Meas Value: 4.49
--
Compound: CCC(c1ccccc1)c1nn2c(-c3cccs3)nnc2s1 (stereo not given)
Result Modifier: =
Meas Value: 4.92
--
Compound: COc1ccc(C2c3ccc4ccccc4c3Oc3ncn(CCCn4ccnc4)c(=N)c32)cc1OC (stereo not given)
Result Modifier: =
Meas Value: 5.27
--
Compound: CCOc1ccc(C2N(C)c3ccccc3N2C)cc1
Result Modifier: =
Meas Value: 4.60
--
Compound: CCc1ccc(Nc2cc(C)c3ccc(O)cc3n2)cc1
Result Modifier: =
Meas Value: 5.36
--
Compound: CCCc1cc(O)c2c3c(c(=O)oc2c1)CN(C)CC3
Result Modifier: <
Meas Value: 4.49
--
Compound: CCCCCCC(O)(c1ccc(F)cc1)C(CN1CCOCC1)c1ccccc1 (stereo not given)
Result Modifier: =
Meas Value: 5.36
--
Compound: CCCN(CCC)CCCNC(=O)c1cc2c(-c3ccc(OC)c(OC)c3)nn(C)c2s1
Result Modifier: =
Meas Value: 4.80
--
Compound: Cc1ccc(CN2CCC(C(=O)Nc3ccc(-c4cc5ccccc5[nH]4)cc3)CC2)o1
Result Modifier: =
Meas Value: 4.87
--
Compound: Oc1c(CN2CCN(c3ccccc3F)CC2)cc(Br)c2cccnc12
Result Modifier: <
Meas Value: 4.49
--
Compound: CC1CCN(Cc2c(O)ccc3cc(-c4nc5ccccc5s4)c(=O)oc23)CC1
Result Modifier: =
Meas Value: 4.72
--
Compound: COc1ccc(C2N(C)c3ccccc3N2C)cc1
Result Modifier: <
Meas Value: 4.49
--
Compound: O=C(CCl)NCCOc1ccc(Cl)cc1Cl
Result Modifier: =
Meas Value: 4.99
--
Compound: CC(NCc1ccccc1)c1cc(Cl)ccc1O (stereo not given)
Result Modifier: <
Meas Value: 4.49
--
Compound: Oc1ccc2ccccc2c1CNc1nc2ccccc2[nH]1
Result Modifier: <
Meas Value: 4.49
--
Compound: CC(C)(C)c1ccc(C(=O)Nc2c3c(nn2-c2cccc(Cl)c2)CSC3)cc1
Result Modifier: <
Meas Value: 4.49
